target: SARS-CoV-2 nucleocapsid protein (N) (SARS-CoV-2, UniProt P0DTC9 1-419); assay: BLI
# reported pKd; entries follow
The quantity pKd is defined as the negative base-10 logarithm of the molar concentration.

CXCL14 (ligand) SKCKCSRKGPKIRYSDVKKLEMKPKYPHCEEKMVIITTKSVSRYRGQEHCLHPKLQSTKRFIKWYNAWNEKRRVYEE = 7.35
CCL21 (ligand) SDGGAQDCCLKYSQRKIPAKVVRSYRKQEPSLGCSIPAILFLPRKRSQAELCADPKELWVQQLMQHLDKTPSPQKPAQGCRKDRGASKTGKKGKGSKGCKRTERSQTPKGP = 7.85
CCL5 (ligand) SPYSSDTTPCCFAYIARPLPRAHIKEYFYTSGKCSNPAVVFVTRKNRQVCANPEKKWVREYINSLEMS = 8.00
CCL28 (ligand) SEAILPIASSCCTEVSHHISRRLLERVNMCRIQRADGDCDLAAVILHVKRRRICVSPHNHTVKQWMKVQAAKKNGKGNVCHRKKHHGKRNSNRAHQGKHETYGHKTPY = 7.66

Next item in the queue.
pKd recorded for this binder, CXCL4 (ligand) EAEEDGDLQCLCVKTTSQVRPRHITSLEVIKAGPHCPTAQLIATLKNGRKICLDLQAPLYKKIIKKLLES , is 6.77

Values from paper PMC9348789
